# assayTarget: glucocorticoid receptor (GR) (Homo sapiens, UniProt P04150)
# Construct: made in house; host or cells: Sf9 insect cells infected with recombinant baculovirus; cytosol preparation
# Sequence (P04150 whole entry, species assumed): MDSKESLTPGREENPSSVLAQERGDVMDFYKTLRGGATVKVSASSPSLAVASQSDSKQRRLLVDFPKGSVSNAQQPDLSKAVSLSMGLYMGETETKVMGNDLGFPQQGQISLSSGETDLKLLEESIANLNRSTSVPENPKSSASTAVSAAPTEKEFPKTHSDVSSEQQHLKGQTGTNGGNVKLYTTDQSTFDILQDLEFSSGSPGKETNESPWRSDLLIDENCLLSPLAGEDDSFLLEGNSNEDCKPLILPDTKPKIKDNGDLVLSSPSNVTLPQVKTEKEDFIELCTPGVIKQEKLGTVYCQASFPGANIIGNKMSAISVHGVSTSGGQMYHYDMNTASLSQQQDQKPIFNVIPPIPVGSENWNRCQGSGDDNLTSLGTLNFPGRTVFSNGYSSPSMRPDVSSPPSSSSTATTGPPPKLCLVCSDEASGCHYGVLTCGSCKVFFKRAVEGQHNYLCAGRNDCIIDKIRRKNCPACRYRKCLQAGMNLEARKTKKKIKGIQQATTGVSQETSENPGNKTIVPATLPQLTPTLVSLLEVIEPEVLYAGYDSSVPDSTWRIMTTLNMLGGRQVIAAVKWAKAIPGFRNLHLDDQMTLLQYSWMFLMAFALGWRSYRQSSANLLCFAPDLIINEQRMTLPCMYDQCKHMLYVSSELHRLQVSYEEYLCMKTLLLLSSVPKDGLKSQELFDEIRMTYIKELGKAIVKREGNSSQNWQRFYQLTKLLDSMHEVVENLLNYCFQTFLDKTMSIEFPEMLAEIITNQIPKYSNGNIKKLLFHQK
# experimentSummary: glucocorticoid receptor (GR) binding test
# protocolConditions: cytosol preparations of Sf9 cells infected with recombinant baculoviruses coding for the GR; 10 nM [3H]-dexamethasone
measure: IC50 (nM)

Cc1noc(=O)c2ccc(NC(=O)C(O)(CC3(c4cc(F)ccc4Cl)CCC3)C(F)(F)F)cc12 (single isomer, unassigned; (+)) = 0.62

[a] Cc1noc(=O)c2ccc(NC(=O)C(O)(CC3(c4ccccc4C(F)(F)F)CCC3)C(F)(F)F)cc12 (single isomer, unassigned; (+))
[b] Cc1noc(=O)c2ccc(NC(=O)C(O)(CC3(c4cc(F)ccc4C(F)(F)F)CCC3)C(F)(F)F)cc12 (single isomer, unassigned; (+))
Exercise: Among a and b , which shows a numerically higher IC50 result? Record your answer as the label of the chosen record.
Solution: a
